system: PKA (Homo sapiens, UniProt P17612)
Construct: purchased Calbiochem
experimentSummary: In vitro kinase assay: peptide phosphorylation by PKA
Format: biochemical
assayConditions: normalized to best substrate
Lab note: class by PKA phosphorylation, see b0 = under 2%, b1 = from 2% up to 5%, b2 = 5% and over

>>> df
                                   substance  classlabel
 0      112 (KRPGKKGSNKRPGKR) [compound 112]          b0
 1        93 (AARKKRISVKKKQEQ) [compound 93]          b0
 2          89 (EYLERRASRRRAV) [compound 89]          b1
 3         82 (PRLIRRGSKKRPAR) [compound 82]          b2
 4          85 (RFARKGSLRQKNV) [compound 85]          b2
 5      97 (KKRSSKKEASMKKVVRP) [compound 97]          b0
 6      88 (KKPFKLSGLSFKRNRKE) [compound 88]          b1
 7       77 (KKKKRASFKRKSSKKG) [compound 77]          b1
 8     76 (HVRRRRGTFKRSKLRARD) [compound 76]          b2
 9       86 (RQRKRKLSFRRRTDKD) [compound 86]          b2
10        98 (AGPLRKSSLKKGGRL) [compound 98]          b2
11          79 (NRKKKRTSFKRKA) [compound 79]          b1
12         110 (EGGDRRASGRRK) [compound 110]          b0
13         90 (AQIVKRASLKRGKQ) [compound 90]          b1
14       91 (VHYTSKDTLRKRHYWR) [compound 91]          b1
15      109 (KEVVRTDSLKGRRGR) [compound 109]          b0
16    103 (LLKKRDSFRTPRDSKLE) [compound 103]          b1
17        99 (AGWRKKTSFRKPKED) [compound 99]          b0
18        105 (ALRRPSLRREADD) [compound 105]          b2
19      113 (GENVLKKSMKSRVKG) [compound 113]          b0
20         92 (DGQKRKKSLRKKLD) [compound 92]          b2
21        84 (QKKSRLRRRASQLKI) [compound 84]          b2
22     96 (RGFLRSASLGRRASFHLE) [compound 96]          b2
23      87 (RQGKRKTSIKRDTVNPL) [compound 87]          b2
24        101 (GAPPRRSSIRNAH) [compound 101]          b2
25        80 (KKKKKRFSFKKSFKL) [compound 80]          b1
26      108 (KATTKKRTLRKNDRK) [compound 108]          b0
27  111 (KKKRFSFKKSFKLSGFSFKK) [compound 111]          b1
28      106 (EILSRRPSYRKILND) [compound 106]          b2
29     104 (EKIKRSSLKKVDSLKK) [compound 104]          b0

----------
system: PKC-delta (Homo sapiens)
Construct: purchased Calbiochem
Sequence (Q05655 whole entry): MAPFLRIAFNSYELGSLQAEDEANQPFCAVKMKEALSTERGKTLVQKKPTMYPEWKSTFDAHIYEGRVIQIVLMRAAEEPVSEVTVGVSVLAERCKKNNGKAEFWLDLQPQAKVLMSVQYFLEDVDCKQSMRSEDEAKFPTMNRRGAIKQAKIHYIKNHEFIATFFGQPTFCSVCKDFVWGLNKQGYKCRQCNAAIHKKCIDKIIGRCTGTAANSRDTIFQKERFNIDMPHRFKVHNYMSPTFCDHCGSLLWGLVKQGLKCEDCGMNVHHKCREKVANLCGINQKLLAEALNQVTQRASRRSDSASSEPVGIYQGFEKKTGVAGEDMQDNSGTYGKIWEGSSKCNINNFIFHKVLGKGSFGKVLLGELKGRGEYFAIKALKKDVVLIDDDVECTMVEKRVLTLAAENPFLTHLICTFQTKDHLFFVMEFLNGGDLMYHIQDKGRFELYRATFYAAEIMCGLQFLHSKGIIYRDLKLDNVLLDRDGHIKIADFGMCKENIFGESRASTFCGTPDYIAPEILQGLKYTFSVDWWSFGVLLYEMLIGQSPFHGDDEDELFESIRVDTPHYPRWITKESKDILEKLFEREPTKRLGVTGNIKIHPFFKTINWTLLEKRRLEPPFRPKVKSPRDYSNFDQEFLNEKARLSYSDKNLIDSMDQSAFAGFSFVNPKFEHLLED
experimentSummary: In vitro kinase assay: peptide phosphorylation by PKC-delta;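 note: peptide concentration 10 nM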
Format: biochemical
assayConditions: normalized to best substrate
Measured PKC delta phosphorylation values are reported for all entries that follow.
metric: PKC delta phosphorylation (%)

>>> df
                                   substance  experimentalresult
 0     76 (HVRRRRGTFKRSKLRARD) [compound 76]                 100
 1        80 (KKKKKRFSFKKSFKL) [compound 80]                  24
 2         90 (AQIVKRASLKRGKQ) [compound 90]                  32
 3          89 (EYLERRASRRRAV) [compound 89]                  20
 4      112 (KRPGKKGSNKRPGKR) [compound 112]                   8
 5      83 (RKIPKRPGSVHRTPSRQ) [compound 83]                  38
 6        99 (AGWRKKTSFRKPKED) [compound 99]                  17
 7        95 (KKKFRTPSFLKKSKK) [compound 95]                  25
 8       86 (RQRKRKLSFRRRTDKD) [compound 86]                  42
 9          85 (RFARKGSLRQKNV) [compound 85]                  34
10      113 (GENVLKKSMKSRVKG) [compound 113]                   4
11       100 (WKGKRRSKARKKRK) [compound 100]                  22
12      109 (KEVVRTDSLKGRRGR) [compound 109]                   7
13  111 (KKKRFSFKKSFKLSGFSFKK) [compound 111]                  16
14      106 (EILSRRPSYRKILND) [compound 106]                   9
15        101 (GAPPRRSSIRNAH) [compound 101]                  13
16        105 (ALRRPSLRREADD) [compound 105]                   9
17        84 (QKKSRLRRRASQLKI) [compound 84]                  34
18         92 (DGQKRKKSLRKKLD) [compound 92]                  17
19        102 (AGSFKRNSIKKIV) [compound 102]                  14
20         110 (EGGDRRASGRRK) [compound 110]                   5
21       77 (KKKKRASFKRKSSKKG) [compound 77]                  76
22      107 (QKRHARVTVKYDRRE) [compound 107]                  10
23     104 (EKIKRSSLKKVDSLKK) [compound 104]                  10
24         82 (PRLIRRGSKKRPAR) [compound 82]                  40
25    103 (LLKKRDSFRTPRDSKLE) [compound 103]                  12

----------
Listed here: items and their measured phosphorylation by PKC alpha.
system: PKC-alpha (Homo sapiens, UniProt P17252)
Construct: purchased Calbiochem
experimentSummary: In vitro kinase assay: peptide phosphorylation by PKC-alpha
Format: biochemical
assayConditions: peptide concentration 10 uM
metric: phosphorylation by PKC alpha

                                   substance                                    system                        metric  experimentalresult
 0  166 (MAQIERGEARIQRRISIKKA) [compound 166]  PKC-alpha (Homo sapiens, UniProt P17252)  phosphorylation by PKC alpha                   7
 1  128 (QQVDRERPHVRRRRGTFKRS) [compound 128]  PKC-alpha (Homo sapiens, UniProt P17252)  phosphorylation by PKC alpha                  33
 2  141 (VTDSQKRREILSRRPSYRKI) [compound 141]  PKC-alpha (Homo sapiens, UniProt P17252)  phosphorylation by PKC alpha                  25
 3  154 (KKFFTQGWAGWRKKTSFRKP) [compound 154]  PKC-alpha (Homo sapiens, UniProt P17252)  phosphorylation by PKC alpha                  12
 4      122 (RAITSTLASSFKRRR) [compound 122]  PKC-alpha (Homo sapiens, UniProt P17252)  phosphorylation by PKC alpha                  44
 5  132 (GFLNEPLSSKSQRRKSLKLK) [compound 132]  PKC-alpha (Homo sapiens, UniProt P17252)  phosphorylation by PKC alpha                  30
 6      120 (AKRRRLSSLRASTSK) [compound 120]  PKC-alpha (Homo sapiens, UniProt P17252)  phosphorylation by PKC alpha                  58
 7  118 (RPQNTLKASKKKKRASFKRK) [compound 118]  PKC-alpha (Homo sapiens, UniProt P17252)  phosphorylation by PKC alpha                  60
 8  134 (RSRSRSRSKSKDKRKSRKRS) [compound 134]  PKC-alpha (Homo sapiens, UniProt P17252)  phosphorylation by PKC alpha                  39
 9        130 (EYLERRASRRRAV) [compound 130]  PKC-alpha (Homo sapiens, UniProt P17252)  phosphorylation by PKC alpha                  38
10  164 (TEGKMARVAWKGKRRSKARK) [compound 164]  PKC-alpha (Homo sapiens, UniProt P17252)  phosphorylation by PKC alpha                   6
11       131 (WKGKRRSKARKKRK) [compound 131]  PKC-alpha (Homo sapiens, UniProt P17252)  phosphorylation by PKC alpha                  22
12        138 (EYLERRASRRRAV) [compound 138]  PKC-alpha (Homo sapiens, UniProt P17252)  phosphorylation by PKC alpha                  20
13  145 (ISDFGLAKKLAVGRHSFSRR) [compound 145]  PKC-alpha (Homo sapiens, UniProt P17252)  phosphorylation by PKC alpha                  30
14  146 (QAQRQIKRGAPPRRSSIRNA) [compound 146]  PKC-alpha (Homo sapiens, UniProt P17252)  phosphorylation by PKC alpha                  24
15  127 (SQVQKQRSAGSFKRNSIKKI) [compound 127]  PKC-alpha (Homo sapiens, UniProt P17252)  phosphorylation by PKC alpha                  39
16  162 (KKKFSFKKPFKLSGLSFKRN) [compound 162]  PKC-alpha (Homo sapiens, UniProt P17252)  phosphorylation by PKC alpha                  19
17  119 (KKRFSFKKSFKLSGFSFKKN) [compound 119]  PKC-alpha (Homo sapiens, UniProt P17252)  phosphorylation by PKC alpha                  98
18  142 (ERHVAQKKSRLRRRASQLKI) [compound 142]  PKC-alpha (Homo sapiens, UniProt P17252)  phosphorylation by PKC alpha                  21
19   149 (RVVQSVKHTKRKSSTVMK) [compound 149]  PKC-alpha (Homo sapiens, UniProt P17252)  phosphorylation by PKC alpha                  52
20  157 (PSPSNETPKKKKKRFSFKKS) [compound 157]  PKC-alpha (Homo sapiens, UniProt P17252)  phosphorylation by PKC alpha                  11
21  147 (RDIRQSPKRGFLRSASLGRR) [compound 147]  PKC-alpha (Homo sapiens, UniProt P17252)  phosphorylation by PKC alpha                  16
22  161 (KYKAFIRIPIPTRRHTFRRQ) [compound 161]  PKC-alpha (Homo sapiens, UniProt P17252)  phosphorylation by PKC alpha                   8
23  155 (RWDKRRWRKIPKRPGSVHRT) [compound 155]  PKC-alpha (Homo sapiens, UniProt P17252)  phosphorylation by PKC alpha                  12
